Biological target: PTHR1 receptor
Sequence (P25961 whole entry): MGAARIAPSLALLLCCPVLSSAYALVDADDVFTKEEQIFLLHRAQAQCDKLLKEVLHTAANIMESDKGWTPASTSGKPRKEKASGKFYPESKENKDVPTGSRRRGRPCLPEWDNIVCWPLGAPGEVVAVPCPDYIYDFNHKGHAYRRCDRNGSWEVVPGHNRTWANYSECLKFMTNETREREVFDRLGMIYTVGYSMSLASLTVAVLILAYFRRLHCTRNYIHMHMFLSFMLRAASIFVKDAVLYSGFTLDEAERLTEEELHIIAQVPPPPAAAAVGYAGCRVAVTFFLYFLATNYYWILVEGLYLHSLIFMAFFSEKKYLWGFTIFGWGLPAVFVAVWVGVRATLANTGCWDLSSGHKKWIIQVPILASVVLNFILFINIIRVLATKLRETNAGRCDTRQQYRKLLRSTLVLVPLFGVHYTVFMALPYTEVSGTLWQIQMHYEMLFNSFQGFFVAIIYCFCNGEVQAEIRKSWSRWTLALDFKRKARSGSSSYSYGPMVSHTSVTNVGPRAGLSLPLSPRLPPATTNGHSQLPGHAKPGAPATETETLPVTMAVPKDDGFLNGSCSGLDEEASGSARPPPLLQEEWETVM
* marks the point of attachment. Palmitoyl = CCCCCCCCCCCCCCCC(=O)*
Result Type: Inhibition of Maximal Response (%)
State just the number; it will be interpreted in %.

IN: Look up Inhibition of Maximal Response for this binder: Palmitoyl-LYLHSLIFMAFFSEKK-NH2 (not fully specified) [Compound 40]
OUT: 28.3
